Tested on: Escherichia coli TOP10
Protocol Details: shrunken log2 fold change of peptide-encoding DNA abundance (4.5 h post-induction vs induction); higher = less antimicrobial activity (less host growth inhibition)
Cond: time post-induction: 4.5 h; library: site-saturation at positions 5, 18, 19, 20
shrunken log2 fold change vs -0.1: at or above is T, below is F.

Please indicate if the recorded shrunken log2 fold change for `RRIRMRPPRLPRPRPRPYNWPRP` meets or exceeds -0.1.
F

// inclusive: shrunken log2 fold change at least -0.1? input: `RRIRTRPPRLPRPRPRPLKMPRP`
T

# check: shrunken log2 fold change of `RRIRPRPPRLPRPRPRPAKSPRP` is greater than or equal to -0.1
T

hey, is shrunken log2 fold change for this one >= -0.1? `RRIRARPPRLPRPRPRPRSNPRP`
T

Can `RRIRVRPPRLPRPRPRPDYVPRP` be said to have shrunken log2 fold change at or above -0.1?
F

Determine whether this sequence has shrunken log2 fold change no lower than -0.1: `RRIRVRPPRLPRPRPRPCNSPRP`
F

Exam item: decide whether the reported shrunken log2 fold change for `RRIRHRPPRLPRPRPRPELEPRP` is at least -0.1.
T

hey, is shrunken log2 fold change for this one >= -0.1? `RRIRIRPPRLPRPRPRPSLRPRP`
F

====

Tested on: Escherichia coli TOP10
Protocol Details: shrunken log2 fold change of peptide-encoding DNA abundance (4.5 h post-induction vs induction); higher = less antimicrobial activity (less host growth inhibition)
Cond: time post-induction: 4.5 h; library: site-saturation at positions 5, 18, 19, 20
Experimental Readout: shrunken log2 fold change
Reply with the value as a number alone.

Return shrunken log2 fold change for the following sequence: `RRIRLRPPRLPRPRPRPSIKPRP`
-0.684

Provide measured shrunken log2 fold change value, entry: `RRIRGRPPRLPRPRPRPKKRPRP`
0.817

Supply shrunken log2 fold change value. Item: `RRIRNRPPRLPRPRPRPQCMPRP`
2.42

Tell me shrunken log2 fold change reported for `RRIRCRPPRLPRPRPRPTGVPRP`
0.619

Specify reported shrunken log2 fold change for the sequence shown: `RRIRYRPPRLPRPRPRPEHPPRP`
-0.143

Determine its reported shrunken log2 fold change: `RRIRYRPPRLPRPRPRPTKTPRP`
-0.0705

Item `RRIRTRPPRLPRPRPRPEYEPRP` : provide shrunken log2 fold change
-0.0445

Quickly give me recorded shrunken log2 fold change for `RRIRLRPPRLPRPRPRPIQWPRP`
0.146

Fill in shrunken log2 fold change for record `RRIRQRPPRLPRPRPRPFNQPRP`
0.00312

Consider the sequence `RRIRVRPPRLPRPRPRPNLEPRP` and give its recorded shrunken log2 fold change.
0.0543

// Input: `RRIRRRPPRLPRPRPRPDYQPRP` . Output its shrunken log2 fold change only.
0.0952

Quick one: give measured shrunken log2 fold change for `RRIRCRPPRLPRPRPRPPAEPRP`
1.18

Output shrunken log2 fold change of `RRIRQRPPRLPRPRPRPTAQPRP`
0.0588

Answer with the recorded shrunken log2 fold change of `RRIRLRPPRLPRPRPRPHNTPRP` only.
-0.61

Return shrunken log2 fold change for the following sequence: `RRIRKRPPRLPRPRPRPYTRPRP`
-0.167

====

System: Escherichia coli TOP10;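 further: peptides expressed intracellularly from a pBAD plasmid library in pooled LB shake-flask culture, induced with 0.3% L-arabinose, DNA abundance read by NGS, three biological replicates, DESeq2 with apeglm shrinkage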
Protocol Details: shrunken log2 fold change of peptide-encoding DNA abundance (4.5 h post-induction vs induction); higher = less antimicrobial activity (less host growth inhibition)
Cond: time post-induction: 4.5 h; library: site-saturation at positions 5, 18, 19, 20
Categories are defined by ranges of shrunken log2 fold change, namely band A: < -0.2; band B: ≥ -0.2 and < 0.03; band C: ≥ 0.03

Band for the recorded shrunken log2 fold change of `RRIRWRPPRLPRPRPRPKKTPRP` ?
band C

Lab note: which band did `RRIRIRPPRLPRPRPRPAKFPRP` land in?
band B

# bin lookup: classify `RRIRHRPPRLPRPRPRPQPDPRP` by its shrunken log2 fold change
band B

Place this sequence in its band: `RRIRSRPPRLPRPRPRPESYPRP`
band C

Please indicate the class for `RRIRNRPPRLPRPRPRPSSAPRP` based on its shrunken log2 fold change.
band B

Just checking, what class would you give `RRIRGRPPRLPRPRPRPGFHPRP` here?
band C

Dear colleague, I would appreciate it if you could identify the bin for `RRIRDRPPRLPRPRPRPYFKPRP` and reply at your convenience.
band A

Just checking, what class would you give `RRIRGRPPRLPRPRPRPVFVPRP` here?
band C

Which category does the recorded shrunken log2 fold change put `RRIRLRPPRLPRPRPRPDALPRP` in?
band A

Just checking, what class would you give `RRIRGRPPRLPRPRPRPLLAPRP` here?
band C

Form field 'band' for `RRIRCRPPRLPRPRPRPVNDPRP`
band B

For `RRIRARPPRLPRPRPRPAYDPRP` , which shrunken log2 fold change bin applies?
band B

Assign a bin to `RRIRSRPPRLPRPRPRPAVKPRP`
band B

Entry `RRIRHRPPRLPRPRPRPYAIPRP` belongs to which category?
band B

Record `RRIRIRPPRLPRPRPRPIWWPRP` — which class?
band C

Please indicate the class for `RRIRFRPPRLPRPRPRPDSNPRP` based on its shrunken log2 fold change.
band A

Quick check: band for `RRIRSRPPRLPRPRPRPEHKPRP`
band B

Hi there! Could you help me figure out the category for `RRIRHRPPRLPRPRPRPCHAPRP` please?
band B

In plain terms, what class is `RRIRERPPRLPRPRPRPLQDPRP` ?
band B

Exam item: assign `RRIRPRPPRLPRPRPRPDWIPRP` to the correct category.
band A

Which band does `RRIRQRPPRLPRPRPRPPRKPRP` fall in?
band C

State the class of the sequence shown: `RRIRCRPPRLPRPRPRPRTHPRP`
band B

Any idea which band `RRIRYRPPRLPRPRPRPRGFPRP` is in?
band B

Could you tell me which band `RRIRERPPRLPRPRPRPCVHPRP` belongs to?
band B

Form: Item = `RRIRSRPPRLPRPRPRPGHYPRP` ; Class = ?
band A

Which bin, given its shrunken log2 fold change, does `RRIRPRPPRLPRPRPRPVAEPRP` occupy?
band C

Pick a category. Item: `RRIRNRPPRLPRPRPRPHINPRP`
band A

Any idea which band `RRIRTRPPRLPRPRPRPTENPRP` is in?
band A

Form field 'band' for `RRIRGRPPRLPRPRPRPVMQPRP`
band C

Tag the class for `RRIRFRPPRLPRPRPRPTWEPRP`
band B

Lab log: `RRIRWRPPRLPRPRPRPSICPRP` — assign shrunken log2 fold change category
band B

Field: class (shrunken log2 fold change) — entry: `RRIRCRPPRLPRPRPRPGCCPRP`
band C

// bin(item) where item = `RRIRFRPPRLPRPRPRPITEPRP`
band B

Please classify: `RRIRRRPPRLPRPRPRPHCEPRP`
band B

Into which category would you place `RRIRARPPRLPRPRPRPTYYPRP` ?
band B

The entry to classify is `RRIRIRPPRLPRPRPRPHLRPRP` ; which class holds it?
band B

Exercise: read the entry `RRIRFRPPRLPRPRPRPWNGPRP` and state which class it falls under.
band C

Pick a category. Item: `RRIRDRPPRLPRPRPRPNFKPRP`
band B

Which of the defined bands does the recorded shrunken log2 fold change of `RRIRFRPPRLPRPRPRPNVIPRP` sit within?
band B

Assign a bin to `RRIRQRPPRLPRPRPRPTSVPRP`
band C

Into which bin does this sequence go? `RRIRVRPPRLPRPRPRPYSLPRP`
band A

For `RRIRYRPPRLPRPRPRPACCPRP` , which shrunken log2 fold change bin applies?
band A

// bin(item) where item = `RRIRIRPPRLPRPRPRPRAKPRP`
band C

Lab note: which band did `RRIRMRPPRLPRPRPRPNLNPRP` land in?
band B

Returns: class label. Input: `RRIRDRPPRLPRPRPRPGIDPRP`
band A

Band assignment needed for `RRIRIRPPRLPRPRPRPVSQPRP` please.
band B

Band for `RRIRHRPPRLPRPRPRPANWPRP` ?
band C

Could you place `RRIRKRPPRLPRPRPRPNIGPRP` in its proper category? Many thanks.
band B

Categorize the following entry: `RRIRPRPPRLPRPRPRPELSPRP`
band C

Sort `RRIRTRPPRLPRPRPRPEKHPRP` into one of the categories.
band C

Which class does `RRIRWRPPRLPRPRPRPHHEPRP` fall in?
band A

Band of `RRIRLRPPRLPRPRPRPDMSPRP` ?
band A

Which shrunken log2 fold change category applies to `RRIRFRPPRLPRPRPRPATGPRP` here?
band C

Category of `RRIRVRPPRLPRPRPRPCMCPRP` , please.
band B

Category lookup for the sequence `RRIRIRPPRLPRPRPRPDYPPRP`
band A

Which class does `RRIRIRPPRLPRPRPRPYMKPRP` fall in?
band A

Each sequence maps to one class by shrunken log2 fold change. Which class for `RRIRSRPPRLPRPRPRPNNEPRP` ?
band A

Determine which band this sequence sits in: `RRIRRRPPRLPRPRPRPVGMPRP`
band C

Which class does `RRIRIRPPRLPRPRPRPSDDPRP` fall in?
band B

Which category does the recorded shrunken log2 fold change put `RRIRCRPPRLPRPRPRPNHEPRP` in?
band B

Assign a bin to `RRIRTRPPRLPRPRPRPSESPRP`
band C

Which shrunken log2 fold change band matches `RRIRRRPPRLPRPRPRPRWTPRP` ?
band C

Where do the numbers come from? From the supplement of paper PMC9112550.
